Each entry below carries its recorded INHIBITION.
# Test system: Plasmodium berghei
# EXPERIMENTAL PROTOCOL: Screen against P. berghei liver stage (PbLuc), transformed with Luciferase, at 10uM
# Type: functional, HepG2
# CONDITION DESCRIPTION: tested at 10 uM
Out of some 69,000 compounds screened, about 8,600 (12%) showed an effect of 50% or more. The entries come from a sample that favours strong results as a whole.

// below: answered compounds
>>> observed("CNC(=O)COc1ccc(CNCc2cc(F)ccc2F)cc1")
"-4.12%"
>>> observed("Cc1cnn(Cc2cc(F)ccc2F)c1NC(=O)NC1CC1")
"35.6%"
>>> observed("Cc1ncccc1Oc1ncnc(N2CCC3(CCCO3)CC2)c1C")
"-5.12%"
>>> observed("Cc1cc(C(=O)N2CCn3cc(CN4CCN(C)CC4)nc3C2)no1")
"32.2%"
>>> observed("COc1ccccc1OC1CCN(C(=O)C2CCCN(C)C2)CC1 (stereo not drawn)")
"62.8%"

Shift focus to the following entry.
Given O=S(=O)(c1cccnc1)N1CCN(Cc2nc(-c3ccco3)cs2)CC1 , state its recorded INHIBITION. 33.4%
